Field: pIC50. Provide a value for each of the compounds that follow.
# System: pMHC tetramer positive T-cell lines
# Protocol conditions: 18 h
pIC50: −log10 of the molar value. Peptide text beside a SMILES is read from it.

Input line: Quick one: pIC50 of CC[C@H](C)[C@H](N)C(=O)N[C@@H](CCSC)C(=O)N[C@@H](C)C(=O)N[C@H](C(=O)N[C@@H](CCC(=O)O)C(=O)N[C@@H](CC(C)C)C(=O)N[C@@H](C)C(=O)N[C@@H](CCC(=O)O)C(=O)N[C@@H](CC(C)C)C(=O)O)[C@@H](C)CC [P218 MAP4K1IMA] (H-IMAIELAEL-OH) ?
Output line: ~10.30

Input line: Look up pIC50: CC(C)C[C@H](NC(=O)[C@H](CC(C)C)NC(=O)[C@H](CC(=O)O)NC(=O)[C@H](CC(=O)O)NC(=O)[C@H](Cc1c[nH]cn1)NC(=O)[C@H](CC(C)C)NC(=O)[C@@H](N)C(C)C)C(=O)N[C@@H](CCC(=O)O)C(=O)N[C@@H](C)C(=O)O [P46 HMHA1VLH] (H-VLHDDLLEA-OH)
Output line: ~10.30

Input line: # input compound: CC(C)C[C@H](NC(=O)[C@@H]1CCCN1C(=O)[C@H](CC(C)C)NC(=O)[C@H](C)NC(=O)[C@H](C)NC(=O)[C@H](Cc1c[nH]c2ccccc12)NC(=O)[C@H](CC(C)C)NC(=O)[C@@H]1CCCN1C(=O)[C@H](CC(C)C)NC(=O)[C@H](CC(C)C)NC(=O)[C@@H](N)CCCNC(=N)N)C(=O)O [P104 ZFP36L2RLL] (H-RLLPLWAALPL-OH) ; wanted: its pIC50
Output line: ~6.30

Input line: Look at this compound and give its reported pIC50. CC[C@H](C)[C@H](NC(=O)[C@@H](N)CO)C(=O)N[C@@H](CCC(N)=O)C(=O)N[C@@H](CC(N)=O)C(=O)N[C@@H](Cc1ccc(O)cc1)C(=O)N[C@@H](Cc1c[nH]cn1)C(=O)N1CCC[C@H]1C(=O)N[C@@H](Cc1ccccc1)C(=O)N[C@@H](C)C(=O)O [P37 DOCK2SIQ] (H-SIQNYHPFA-OH)
Output line: ~6.30

Input line: Request the reported pIC50 associated with CSCC[C@H](NC(=O)[C@@H](N)CO)C(=O)N[C@@H](CS)C(=O)N[C@@H](CCCNC(=N)N)C(=O)N[C@@H](Cc1ccccc1)C(=O)N[C@@H](CO)C(=O)N1CCC[C@H]1C(=O)N[C@@H](CC(C)C)C(=O)N[C@H](C(=O)N[C@@H](CC(C)C)C(=O)O)[C@@H](C)O [P309 HSPA6SMC] (H-SMCRFSPLTL-OH)
Output line: ~8.30
